Data credit: patent US20250186374A1

target: SARS-CoV-2 3CLpro (Severe acute respiratory syndrome coronavirus 2, UniProt P0DTD1); experiment: biochemical; format: biochemical
pIC50: −log10 of the molar value.
PARAMETER MEASURED: pIC50

COMPOUND	PARAMETER MEASURED	RESULT
O=C(Nc1ccc([N+](=O)[O-])cc1Cl)c1cc(Cl)ccc1O [Niclosamide, niclosamide]	pIC50	< 4.30
